Target: T1, DNTTIP1 (TdIF1), His-tagged (human, UniProt Q9H147 1-329)
T1 sequence: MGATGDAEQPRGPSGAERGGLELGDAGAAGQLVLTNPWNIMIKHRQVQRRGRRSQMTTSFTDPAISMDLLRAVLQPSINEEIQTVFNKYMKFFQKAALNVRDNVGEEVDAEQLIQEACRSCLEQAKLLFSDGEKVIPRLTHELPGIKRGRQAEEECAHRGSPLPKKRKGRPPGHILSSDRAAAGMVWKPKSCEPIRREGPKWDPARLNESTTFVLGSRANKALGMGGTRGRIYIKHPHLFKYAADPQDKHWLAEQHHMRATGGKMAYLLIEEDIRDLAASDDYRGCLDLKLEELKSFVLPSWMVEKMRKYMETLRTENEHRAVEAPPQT
Experiment: fluorescence anisotropy; Hill n 2.39; error = fit SE x15; Anisotropy: 15 nM DNA, 10 mM Na-PO4 pH 6.5, 150 mM KCl, 250 uM TCEP, 5% glycerol. Pull-down: 20 mM HEPES pH 7.9, 100 mM KCl, 10% glycerol, 0.05% CHAPS, poly(dIdC), oligo B, acetylated BSA, room temperature
Details: protein: recombinant; tags: N-term 6xHis; chain copies: 2; label: fluorescein on first T of sense strand; blunt
experimental-readout: pKd
# log scale: pKd equals minus log10 of the concentration in mol/L

Query: What does the record list as pKd for CATAKO_25 (dsDNA) DNA 1: AGATGCTGAGAGCTCGCAGCTGCTT DNA 2: AAGCAGCTGCGAGCTCTCAGCATCT ?
Result: 6.93

Hello, the source for this data is paper PMC11115230, in case you need it.
